Sourced from patent US20100260765A1

Target: T1, mouse KDR (Flk-1)/Fc (Cat. #443-KD/CF, R&D Systems) (mouse, UniProt P35918 20-762)
T1 construct: Bought reagent; also called mouse VEGFR2; KDR mouse ortholog; Fc part of the bought chimera not given
T1 sequence (P35918 20-762): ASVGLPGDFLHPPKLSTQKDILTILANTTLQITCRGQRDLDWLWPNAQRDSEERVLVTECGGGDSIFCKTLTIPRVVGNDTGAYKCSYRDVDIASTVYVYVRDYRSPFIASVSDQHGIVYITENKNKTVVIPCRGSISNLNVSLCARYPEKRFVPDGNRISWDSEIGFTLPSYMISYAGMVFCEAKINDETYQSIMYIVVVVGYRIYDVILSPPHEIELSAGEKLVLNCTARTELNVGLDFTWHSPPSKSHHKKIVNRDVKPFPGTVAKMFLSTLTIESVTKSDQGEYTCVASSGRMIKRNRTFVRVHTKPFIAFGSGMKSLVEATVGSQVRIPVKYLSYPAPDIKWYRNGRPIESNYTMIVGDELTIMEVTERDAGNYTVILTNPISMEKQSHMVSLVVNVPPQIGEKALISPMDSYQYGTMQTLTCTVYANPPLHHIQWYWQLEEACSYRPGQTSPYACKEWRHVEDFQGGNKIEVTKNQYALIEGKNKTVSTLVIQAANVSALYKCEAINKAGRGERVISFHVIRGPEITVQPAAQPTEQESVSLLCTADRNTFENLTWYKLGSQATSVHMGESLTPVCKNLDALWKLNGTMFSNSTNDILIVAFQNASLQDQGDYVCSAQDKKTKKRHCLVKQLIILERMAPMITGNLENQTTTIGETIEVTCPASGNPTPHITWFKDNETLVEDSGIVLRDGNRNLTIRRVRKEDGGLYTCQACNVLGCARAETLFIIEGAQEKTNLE
Experiment: ELISA, plate-coated Flk-1/Fc 500 ng/mL, hybridoma supernatant 1:5
Provide the reported OD (450 nm) of each item.
Give the number; OD450 is assumed, so skip it.

INPUT: Hello, please tell me recorded OD (450 nm) for this one: anti-KDR monoclonal antibody 30F6 (antibody, V domains shown, Fully human mAb from XenoMouse (IgG2 or IgG4 strain); hybridoma supernatant) VH: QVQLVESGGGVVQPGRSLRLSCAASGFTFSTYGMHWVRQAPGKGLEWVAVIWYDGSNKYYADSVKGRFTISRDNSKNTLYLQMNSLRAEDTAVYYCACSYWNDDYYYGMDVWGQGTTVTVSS VL: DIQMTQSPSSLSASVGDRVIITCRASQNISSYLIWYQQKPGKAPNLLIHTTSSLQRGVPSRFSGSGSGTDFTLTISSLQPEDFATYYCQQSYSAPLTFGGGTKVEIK
OUTPUT: 0.067

INPUT: Hello, please tell me recorded OD (450 nm) for this one: anti-KDR monoclonal antibody 31E11 (antibody, V domains shown, Fully human mAb from XenoMouse (IgG2 or IgG4 strain); hybridoma supernatant) VH: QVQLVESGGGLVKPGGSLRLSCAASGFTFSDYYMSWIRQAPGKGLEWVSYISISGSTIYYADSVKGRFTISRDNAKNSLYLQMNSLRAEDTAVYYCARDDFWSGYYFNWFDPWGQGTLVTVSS VL: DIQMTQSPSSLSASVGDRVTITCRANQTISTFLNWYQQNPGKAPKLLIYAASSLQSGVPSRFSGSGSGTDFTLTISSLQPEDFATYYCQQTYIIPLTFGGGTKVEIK
OUTPUT: 0.162

INPUT: Hello, please tell me recorded OD (450 nm) for this one: anti-KDR monoclonal antibody 24C9 (antibody, V domains shown, Fully human mAb from XenoMouse (IgG2 or IgG4 strain); hybridoma supernatant) VH: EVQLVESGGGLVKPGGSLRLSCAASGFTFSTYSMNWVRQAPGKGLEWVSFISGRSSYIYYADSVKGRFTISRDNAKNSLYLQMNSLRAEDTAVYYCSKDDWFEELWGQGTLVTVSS VL: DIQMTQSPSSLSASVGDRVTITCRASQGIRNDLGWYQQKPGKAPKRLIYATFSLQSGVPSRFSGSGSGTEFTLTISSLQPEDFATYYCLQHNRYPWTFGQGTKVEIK
OUTPUT: 0.098

INPUT: Hello, please tell me recorded OD (450 nm) for this one: anti-KDR monoclonal antibody 33C3 (antibody, V domains shown, Fully human mAb from XenoMouse (IgG2 or IgG4 strain); hybridoma supernatant) VH: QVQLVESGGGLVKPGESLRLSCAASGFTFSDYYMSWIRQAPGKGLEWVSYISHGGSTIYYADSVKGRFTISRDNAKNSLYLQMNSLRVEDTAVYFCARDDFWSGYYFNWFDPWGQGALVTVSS VL: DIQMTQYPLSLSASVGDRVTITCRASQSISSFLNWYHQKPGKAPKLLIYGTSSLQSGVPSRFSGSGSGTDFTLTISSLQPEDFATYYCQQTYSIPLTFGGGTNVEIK
OUTPUT: 0.076

INPUT: Hello, please tell me recorded OD (450 nm) for this one: anti-KDR monoclonal antibody 29H3 (antibody, V domains shown, Fully human mAb from XenoMouse (IgG2 or IgG4 strain); hybridoma supernatant) VH: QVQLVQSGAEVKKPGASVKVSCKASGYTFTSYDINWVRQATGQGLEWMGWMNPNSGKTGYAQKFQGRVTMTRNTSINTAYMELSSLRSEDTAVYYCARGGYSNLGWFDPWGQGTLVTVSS VL: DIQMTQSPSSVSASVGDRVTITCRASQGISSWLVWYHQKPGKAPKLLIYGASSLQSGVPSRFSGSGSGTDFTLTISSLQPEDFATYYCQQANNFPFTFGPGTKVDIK
OUTPUT: 0.096

INPUT: Hello, please tell me recorded OD (450 nm) for this one: anti-KDR monoclonal antibody 21H9 (antibody, V domains shown, Fully human mAb from XenoMouse (IgG2 or IgG4 strain); hybridoma supernatant) VH: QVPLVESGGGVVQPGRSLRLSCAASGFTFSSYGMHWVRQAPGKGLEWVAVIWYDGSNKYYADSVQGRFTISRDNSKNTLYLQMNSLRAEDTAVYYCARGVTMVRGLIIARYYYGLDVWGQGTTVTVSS VL: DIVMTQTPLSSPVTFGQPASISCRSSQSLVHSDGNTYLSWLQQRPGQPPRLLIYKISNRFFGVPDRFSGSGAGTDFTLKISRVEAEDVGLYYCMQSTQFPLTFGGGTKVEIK
OUTPUT: 0.139

INPUT: Hello, please tell me recorded OD (450 nm) for this one: anti-KDR monoclonal antibody 33B1 (antibody, V domains shown, Fully human mAb from XenoMouse (IgG2 or IgG4 strain); hybridoma supernatant) VH: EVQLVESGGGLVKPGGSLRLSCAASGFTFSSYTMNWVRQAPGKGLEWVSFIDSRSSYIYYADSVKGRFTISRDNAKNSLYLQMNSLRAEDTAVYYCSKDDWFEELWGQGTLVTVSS VL: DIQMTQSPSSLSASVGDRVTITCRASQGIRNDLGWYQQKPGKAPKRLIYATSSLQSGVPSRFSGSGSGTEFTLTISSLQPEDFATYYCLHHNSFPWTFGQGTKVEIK
OUTPUT: 0.108
